absorbance at 405 nm for assorted molecules
# System: gum arabic
# EXPERIMENTAL_PROTOCOL: VHH binding to gum arabic in ELISA
# Design: species or system acacia tree
# CONDITION_CONTEXT: [VHH] 0.0117188 μg/ml (0.78125 nM); gum arabic 100 μg/ml

[ask] If you can, please state the reported absorbance at 405 nm value of VHH 5D4 (VHH, Hexahistidine-tagged) VHH: QVQLQESGGGLVQPGGSLRLSCAASGFDMRRFGIGWFRQVAGKEREGVSCSNVHDGTTYYTNDVKGRFTIVRDNTKNMLYLQMNKLRPEDTAVYSCATTDCEATAWGTYRGYFGQGTQVTVSS .
[reply] 0.087

Moving on to another molecule below.
[ask] Reported absorbance at 405 nm, molecule VHH7C2: plant-binding VHH, listed among SEQ ID NO:1-42 (protein, listed as Lama glama, 7C2) VHH: QVQLQESGGGLVQPGGSLRLSCAAFGFALANYGIGWFRQAPGKDRERVSCDSVDDGSTHYSNSVQGRFTIIRDNAKNTVFLQMNSLKAEDTAVYYCATTDCDATTWGTWINYRGQGTQVTVSS : ____
[reply] 0.088
